# Tgt: Fatty-acid amide hydrolase 1 [30-579] (Rattus norvegicus)
# Construct: 30-579
# Sequence (P97612 30-579): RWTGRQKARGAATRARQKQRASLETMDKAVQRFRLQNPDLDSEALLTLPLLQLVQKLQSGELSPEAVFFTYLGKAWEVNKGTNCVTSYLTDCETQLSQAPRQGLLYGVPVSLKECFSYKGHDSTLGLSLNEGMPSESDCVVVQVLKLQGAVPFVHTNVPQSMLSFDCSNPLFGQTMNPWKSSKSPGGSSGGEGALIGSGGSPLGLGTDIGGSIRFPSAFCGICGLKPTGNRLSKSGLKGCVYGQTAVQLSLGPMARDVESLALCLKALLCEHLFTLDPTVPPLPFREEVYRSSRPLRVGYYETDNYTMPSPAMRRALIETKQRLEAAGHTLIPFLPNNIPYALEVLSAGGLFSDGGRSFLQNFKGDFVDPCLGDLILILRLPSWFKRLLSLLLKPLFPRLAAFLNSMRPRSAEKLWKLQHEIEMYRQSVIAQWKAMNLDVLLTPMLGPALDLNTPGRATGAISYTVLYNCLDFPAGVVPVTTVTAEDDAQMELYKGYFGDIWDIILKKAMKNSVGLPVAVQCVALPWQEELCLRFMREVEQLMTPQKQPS
# Assay info: FAAH Inhibition Assay
Endpoint name: IC50 (nM)
Your answer should be a plain number; it is taken to be in nM.

Known IC50 results, listed for orientation:
>>> readout_number("NC(=O)c1ccc(OC(=O)NC2CCCCC2)cc1-c1ccccc1")
252
>>> readout_number("O=C(NC1CCCCC1)Oc1ccc(CO)c(-c2ccccc2)c1")
46
>>> readout_number("Cc1ccc(OC(=O)NC2CCCCC2)cc1-c1ccccc1")
176
>>> readout_number("O=C(NC1CCCCC1)Oc1ccc2ccn(-c3ccccc3)c2c1")
1030
>>> readout_number("Nc1ccc(OC(=O)NC2CCCCC2)cc1-c1ccccc1")
52

Exercise: Dear colleague, please send me the reported IC50 for `Nc1ccc(-c2ccccc2)cc1OC(=O)NC1CCCCC1` when you can.
Solution: 4830

Exercise: Give recorded IC50. `O=C(NC(=O)c1ccc(OC(=O)NC2CCCCC2)cc1-c1ccccc1)NC1CCCCC1`
Solution: 2740
